target: FLAP (human ALOX5AP expressed in COS-7 cell membranes) (Homo sapiens (Human)); assay: FLAP Binding Assay (Test A), competition binding with 3H-MK591 as tracer; details: competition with 3H-MK591 (2 nM), membranes from COS-7 cells expressing human ALOX5AP, 60 min at rt
Sequence (P20292 whole entry): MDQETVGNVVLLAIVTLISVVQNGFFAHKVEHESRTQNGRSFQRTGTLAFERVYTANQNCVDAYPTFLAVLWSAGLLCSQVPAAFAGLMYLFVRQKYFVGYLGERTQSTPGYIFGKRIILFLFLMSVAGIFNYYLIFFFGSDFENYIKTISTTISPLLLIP
OBSERVATION_TYPE: IC50 (µM)

| MOLECULE | ASSAY_TARGET | UNIT_ANNOTATION | READOUT_VALUE |
| --- | --- | --- | --- |
| Cc1cc(-c2ccc(C(=O)[C@@H]3CCCC[C@H]3C(=O)Nc3c(C)nn4c3C(=O)NCC4)cc2)n[nH]1 | FLAP (human ALOX5AP expressed in COS-7 cell membranes) (Homo sapiens (Human)) | µM | 0.0039 |

I = NC(=O)c1[nH]ncc1NC(=O)[C@@H]1CCCC[C@H]1C(=O)c1ccc(-c2ccn[nH]2)cc1
II = Cc1cc(-c2ccc(C(=O)[C@@H]3CCCC[C@H]3C(=O)Nc3cn[nH]c3)cc2)[nH]n1
Name the one with the greater IC50 value, either I or II as given. The response must carry the label of the picked entry.
II
